Substrate: S protein of SARS-CoV-2 variant P1 (Brazil, Gamma), full length, on pseudovirus or authentic virus (SARS-CoV-2), P0DTC2
assay: cell-based or functional assay
reported-endpoint: PRNT50

Query :: // lookup PRNT50 for RBD-chAb-15 (antibody, V domains shown) VH: EVQLEESGPGLVQPSQSLSITCTVSDFSLTTYGVHWVRQSPGKGLEWLGVIWSGGSTDYNAAFISRLSISKDNSKSQVFFKMNSLQTNDTAIYYCARMGDGYYVGAMDYWGQGTSVTVSS VL: DIQLTQSPAILSVSPGERVSFSCRASQSIGTSIHWYQQRTNGSPRHLIKYASESISGIPSRFSGSGSGTDFTLTINGVESEDIADYYCQQGHNWPLTFGAGTKLDIK
Result :: 50.9 ng/mL
